- recordedConditions: in ethanol, 313.15 K
quantityName: solubility (mole fraction)
Answers are plain numbers.

Give the measured solubility (mole fraction) of Cc1c([N+](=O)[O-])c(C)c([N+](=O)[O-])c(C(C)(C)C)c1[N+](=O)[O-] . 0.00663

----------
- recordedConditions: in isopropanol, 303.15 K
quantityName: solubility (mole fraction)
Give bare numbers.

Give the measured solubility (mole fraction) of Cc1c([N+](=O)[O-])c(C)c([N+](=O)[O-])c(C(C)(C)C)c1[N+](=O)[O-] . 0.00437

----------
- recordedConditions: in n-heptane, 293.15 K
quantityName: solubility (mole fraction)
Answers are plain numbers.

Give the measured solubility (mole fraction) of Cc1c([N+](=O)[O-])c(C)c([N+](=O)[O-])c(C(C)(C)C)c1[N+](=O)[O-] . 0.00496

These measurements were taken from BigSolDB 2.1.
